Overview of reported melting point across a group of compounds:

[
  {
    "COMPOUND": "Cc1ccn(-c2ccc(S(C)(=O)=O)cc2)c1-c1ccc(Cl)cc1",
    "melting point": "173 to 174 °C"
  },
  {
    "COMPOUND": "O=C1CCC(N2C(=O)c3cccc(OCc4ccc(CN5CCC(c6ccccc6)CC5)cc4)c3C2=O)C(=O)N1 (stereo not given)",
    "melting point": "142 to 144 °C"
  },
  {
    "COMPOUND": "Cc1cc(C)c(Cc2ccc(=O)[nH]n2)c(C)c1",
    "melting point": "125 to 127 °C"
  },
  {
    "COMPOUND": "COc1ccc(C(=O)NCCc2cccc(OCc3ccccc3)c2)cc1OC",
    "melting point": "82 to 84 °C"
  },
  {
    "COMPOUND": "NC(=O)c1cnc2cc(F)c(F)cc2c1",
    "melting point": "261 °C"
  },
  {
    "COMPOUND": "COc1ccc2sc3c(c2c1)SCCNC3=O",
    "melting point": "209 to 210 °C"
  }
]

Fill in: melting point of O=C(N[C@H](CO)c1ccccc1)c1[nH]c2ccc(Cl)cc2c1S(=O)(=O)c1ccccc1 is ___
155 to 160 °C

Which melting point reading was recorded for the compound CO[C@]1(c2cc(F)cc(Oc3ccc(/C(C)=N/O)cc3)c2)CCO[C@@H]1C (racemic) ?
126 to 127 °C

State the recorded melting point for this entry: CNCCCCN1CC[C@H](NC(=O)c2cc(Cl)c(N)cc2OC)[C@H](OC)C1 (relative stereo)
129 °C

Give the measured melting point of CCOC(=O)c1cn(C2COC2)c2c(OC)c(F)c(F)cc2c1=O .
195 to 198 °C

Reported melting point, compound CCOC(=O)c1c(C(F)(F)F)nc(C(F)F)c(C(=O)OC)c1OCC : ____
59 to 61 °C

# input compound: CCN1C(C)CN(CC(=O)NC2(c3cc4ccccc4o3)C(=O)Nc3cc(Cl)cc(Cl)c32)CC1C (single isomer, unassigned; (+)) ; wanted: its melting point
157 to 160 °C

What measured melting point goes with COc1ccc(C(=O)NCCCCCCCNC(=O)c2ccc(OC)c(OC)c2)cc1OC ?
160 to 161 °C

Any idea what its melting point is? The compound is O=C(c1ccc([N+](=O)[O-])cc1)N1CCOCC1
90 to 91 °C

Look up melting point for this compound: Cn1ccnc1C1(CCCCc2ccc(NC(=O)c3ccccc3)cc2)c2ccccc2-c2ccccc21
146 to 148 °C

Data request, read-out melting point, for O=C(NCCCCCC1CCSS1)c1ccccc1 (stereo not given)
58 to 59 °C

Which melting point value belongs to CCN1N=C(c2ccc(F)cc2)c2cc(Cl)c(Cl)cc2CS1(=O)=O ?
218 to 221 °C

For the compound shown here, O=C1c2ccccc2S(=O)(=O)c2c1cccc2-c1nnn[nH]1 , give the reported melting point.
271 °C

Request the reported melting point associated with O=C(O)c1cccc(NC(=O)C(CS)CCCc2ccccc2)c1 (stereo not given)
134 to 136 °C

Entry Cc1coc(C)c1N(C)c1cc(Br)cc2c1nc(C)n2C has what melting point?
207 to 208 °C
